# Condition parameters: in methyl acetate, 303.15 K
Measurement name: solubility (mole fraction)

- Smiles representation: "NS(=O)(=O)c1ccccc1"
  Experimental value: 0.0743

----------
# Condition parameters: in isobutanol, 273.15 K

- Smiles representation: "NS(=O)(=O)c1ccccc1"
  solubility (mole fraction): 0.00387

----------
# Condition parameters: in acetonitrile, 313.15 K

- Smiles representation: "NS(=O)(=O)c1ccccc1"
  solubility (mole fraction): 0.0928

----------
# Condition parameters: in n-propanol, 283.85 K
Measurement name: solubility (mole fraction)

- Smiles representation: "NS(=O)(=O)c1ccccc1"
  Experimental value: 0.0103

----------
# Condition parameters: in n-propanol, 299.15 K

- Smiles representation: "NS(=O)(=O)c1ccccc1"
  solubility (mole fraction): 0.0175

Data credit: BigSolDB 2.1
